Where do the numbers come from? From ChEMBL document CHEMBL2218924.

For each of the molecules below, state its residual activity.
# TARGET_ENTITY: Tyrosine-protein kinase Blk (Homo sapiens)
# CONDITION_SET: at 10 µM
# unit: % | format: bare number

Query :: Fill in the blank: the reported residual activity of `NCCNc1ncc(C(N)=O)c(Nc2cccc(C(F)(F)F)c2)n1` is ____.
Result :: 12

Query :: Fill in the blank: the reported residual activity of `CCN(CC)CCNC(=O)c1c(C)[nH]c(/C=C2\C(=O)Nc3ccc(Cl)cc32)c1C` is ____.
Result :: 0

Query :: Fill in the blank: the reported residual activity of `O=C(Nc1nc2ccccc2n1CCN1CCOCC1)c1cccc([N+](=O)[O-])c1` is ____.
Result :: 100

Query :: Fill in the blank: the reported residual activity of `O=C1Nc2ccc(Cl)cc2/C1=C/c1cc(Cl)c(O)c(Cl)c1` is ____.
Result :: 50

Query :: Fill in the blank: the reported residual activity of `NC(=O)Nc1sc(-c2ccc(F)cc2)cc1C(N)=O` is ____.
Result :: 4

Query :: Fill in the blank: the reported residual activity of CSc1nc(-c2ccc(F)cc2)c(-c2ccnc(NC(C)c3ccccc3)c2)[nH]1 (stereo unspecified) is ____.
Result :: 63

Query :: Fill in the blank: the reported residual activity of `COc1ccc(Cl)cc1NC(=O)Nc1cc(C)nc2ccccc12` is ____.
Result :: 78

Query :: Fill in the blank: the reported residual activity of `CCOC(=O)c1c(C)[nH]c(/C=C2\C(=O)Nc3ccccc32)c1C` is ____.
Result :: 57

Query :: Fill in the blank: the reported residual activity of `Nc1n[nH]c2nc3ccccc3nc12` is ____.
Result :: 88

Query :: Fill in the blank: the reported residual activity of `O=C(c1cc2cc(O)ccc2[nH]1)c1cc2cc(O)ccc2[nH]1` is ____.
Result :: 1

Query :: Fill in the blank: the reported residual activity of `CC(C)(C)n1nc(Cc2cccc3ccccc23)c2c(N)ncnc21` is ____.
Result :: 13
